Hey, just so you know, these numbers are from patent US20240067657A1.

# Test system: HSV-1 Strain F in Vero or MRC5 cells
# Protocol summary: Viral qPCR assay HSV-1 (V0/V1, V2/V3), EC50
# Type: cell-based
# Experimental conditions: Human alphaherpesvirus 1, Vero, VERO cells, 10%; read-out: HSV1 Cell (EC50) VERO 10%
Assay endpoint: EC50 (nM)
I only need the number, in nM, no unit after it.

Req: Give recorded EC50 with HSV-1 Strain F in Vero or MRC5 cells for the following compound: O=C(NCc1ccc(Cl)nc1)c1cc(O[C@H]2CCN3C(=O)OC[C@@H]3C2)c(-c2cnn(C(F)F)c2)cn1
Resp: 1450

Req: // map O=C(NCc1ccc(Cl)cc1)c1cc(O[C@H]2CCN3C(=O)OC[C@@H]3C2)c(-c2ccn(CC(F)(F)F)n2)cn1 to recorded EC50 (system: HSV-1 Strain F in Vero or MRC5 cells)
Resp: 319

Req: API: value(readout= EC50, system= HSV-1 Strain F in Vero or MRC5 cells, query= O=C(NCc1ccc(Cl)c(F)c1)c1cc(O[C@H]2CCN3C(=O)OC[C@@H]3C2)c(-c2cnn(C(F)F)c2)cn1 )
Resp: 196

Req: Report EC50 for O=C(NCc1ccc(Cl)cc1)c1cc(O[C@H]2CCN3C(=O)OC[C@@H]3C2)c(-c2cnn(CC(F)(F)F)c2)cn1 tested on HSV-1 Strain F in Vero or MRC5 cells.
Resp: 426

Req: What measured EC50 is associated with O=C(NCc1ccc(Cl)cn1)c1cc(O[C@H]2CCN3C(=O)OC[C@@H]3C2)c(-c2cnn(C(F)F)c2)cn1 on HSV-1 Strain F in Vero or MRC5 cells?
Resp: 853

Req: Report EC50 for CC(C)CCn1cc(-c2cnc(C(=O)NCc3ccc(Cl)cc3)cc2O[C@H]2CCN3C(=O)OC[C@@H]3C2)cn1 (racemic) tested on HSV-1 Strain F in Vero or MRC5 cells.
Resp: 1130

Req: Could you share what EC50 was measured for CC(C)(O)Cn1cc(-c2cnc(C(=O)NCc3ccc(Cl)cc3)cc2O[C@H]2CCN3C(=O)OC[C@@H]3C2)cn1 , tested on HSV-1 Strain F in Vero or MRC5 cells?
Resp: 1000

Req: Record lookup: for HSV-1 Strain F in Vero or MRC5 cells, what EC50 belongs to O=C(NCc1ccc(Cl)cc1)c1cc(O[C@@H]2CCN3C(=O)OC[C@H]3C2)c(-c2cn[nH]c2)cn1 (racemic) ?
Resp: 1670

Req: Item: O=C(NCc1ccc(Cl)cc1)c1cc(O[C@H]2CCN3C(=O)OC[C@@H]3C2)c(CC2CCCO2)cn1 (mixture of isomers) Test system: HSV-1 Strain F in Vero or MRC5 cells Read-out: EC50 Value: ?
Resp: 227

Req: Entry CC(C)(O)Cc1cnc(C(=O)NCc2ccc(Cl)cc2)cc1O[C@H]1CCN2C(=O)OC[C@@H]2C1 , system HSV-1 Strain F in Vero or MRC5 cells: what EC50 was measured?
Resp: 719

Req: Return EC50 measured with HSV-1 Strain F in Vero or MRC5 cells given this compound: CC(C)n1cc(-c2c[n+]([O-])c(C(=O)NCc3ccc(Cl)cc3)cc2O[C@H]2CCN3C(=O)OC[C@@H]3C2)cn1
Resp: 268

Req: Return EC50 measured with HSV-1 Strain F in Vero or MRC5 cells given this compound: Cc1cnc(C(=O)NCc2ccc(Cl)cc2)cc1O[C@H]1CCN2C(=O)CC[C@@H]2C1
Resp: 594

Req: Request - read-out EC50 | tested on HSV-1 Strain F in Vero or MRC5 cells | compound Cn1cc(-c2cnc(C(=O)NCc3ccc(Cl)cc3)cc2O[C@H]2CCN3C(=O)OC[C@@H]3C2)cn1
Resp: 184

Req: Item CN(Cc1cnc(C(=O)NCc2ccc(Cl)cc2)cc1O[C@H]1CCN2C(=O)OC[C@@H]2C1)[C@H]1CCOC1 with HSV-1 Strain F in Vero or MRC5 cells - EC50?
Resp: 471

Req: Record lookup: for HSV-1 Strain F in Vero or MRC5 cells, what EC50 belongs to O=C(NCc1ccc(Cl)cc1)c1cc(O[C@H]2CCN3C(=O)OC[C@@H]3C2)cc(CO)n1 ?
Resp: 10700

Req: // fetch HSV-1 Strain F in Vero or MRC5 cells EC50 for Cn1cc(-c2cnc(C(=O)NCc3ccc(C#N)cc3)cc2O[C@H]2CCN3C(=O)OC[C@@H]3C2)cn1 (racemic)
Resp: 1920

Req: Lab note: need EC50 with HSV-1 Strain F in Vero or MRC5 cells for entry CC(C)(C)n1cc(-c2cnc(C(=O)NCc3ccc(Cl)cc3)cc2O[C@H]2CCN3C(=O)OC[C@@H]3C2)cn1 (racemic) , please look it up.
Resp: 882

Req: # value lookup — system HSV-1 Strain F in Vero or MRC5 cells, readout EC50, item Cc1c[n+]([O-])c(C(=O)NCc2ccc(Cl)cc2)cc1O[C@H]1CCN2C(=O)OC[C@@H]2C1
Resp: 496

Req: Provide value of EC50 for this record tested with HSV-1 Strain F in Vero or MRC5 cells: CC(=O)N1CCC(Oc2cc(C(=O)NCc3ccc(Cl)cc3)ncc2-c2cnn(C(F)F)c2)CC1
Resp: 430

Req: Notebook: pull reported EC50 for HSV-1 Strain F in Vero or MRC5 cells, entry CC(=O)N1CCC(Oc2cc(C(=O)NCc3ccc(Cl)cc3)[n+]([O-])cc2-c2cnn(C(F)F)c2)CC1
Resp: 401

Req: API: value(readout=EC50, system=HSV-1 Strain F in Vero or MRC5 cells) for record COCCn1cc(-c2cnc(C(=O)NCc3ccc(Cl)cc3)cc2O[C@H]2CCN3C(=O)OC[C@@H]3C2)cn1
Resp: 309

Req: Given the entry N#Cc1cnc(C(=O)NCc2ccc(Cl)cc2)cc1O[C@H]1CCN2C(=O)CC[C@@H]2C1 (racemic) , what EC50 was observed with HSV-1 Strain F in Vero or MRC5 cells?
Resp: 473

Req: Give HSV-1 Strain F in Vero or MRC5 cells EC50 for Cn1cnc(-c2cnc(C(=O)NCc3ccc(Cl)cc3)cc2O[C@H]2CCN3C(=O)OC[C@@H]3C2)c1
Resp: 194

Req: Lab request: please report EC50 under test system HSV-1 Strain F in Vero or MRC5 cells for CS(=O)(=O)N1CCC(Oc2cc(C(=O)NCc3ccc(Cl)cc3)ncc2Cl)CC1
Resp: 1030

Req: Fill in the recorded EC50 for this compound, with HSV-1 Strain F in Vero or MRC5 cells as test system: O=C(NCc1ccc(Cl)cc1)c1cc(O[C@H]2CCN3C(=O)OC[C@@H]3C2)c(-c2nccs2)cn1
Resp: 30.8

Req: Lab request: please report EC50 under test system HSV-1 Strain F in Vero or MRC5 cells for CCn1cc(-c2cnc(C(=O)NCc3ccc(Cl)cc3)cc2O[C@H]2CCN3C(=O)OC[C@@H]3C2)cn1 (racemic)
Resp: 200

Req: Entry O=C(NCc1ccc(Cl)cc1)c1cc(O[C@H]2CCN3C(=O)OC[C@@H]3C2)c(CCO)cn1 , system HSV-1 Strain F in Vero or MRC5 cells: what EC50 was measured?
Resp: 3260

Req: Form: Entry = Cn1cc(-c2cnc(C(=O)NCc3ccc(Cl)cc3)cc2OC2CCC(C#N)CC2)cn1 (stereo not shown) | System = HSV-1 Strain F in Vero or MRC5 cells | EC50 = ____
Resp: 529

====

# Tested on: HCMV Strain AD169 in MRC-5 cells
# Protocol summary: Viral qPCR assay HCMV (V0/V1, V2/V3), EC50
# Assay type: cell-based
# Experimental conditions: Human betaherpesvirus 5, AD169, MRC5, viral qPCR assay of Example 191; read-out: HCMV Cell (EC50)
Assay endpoint: pEC50
Interpret pEC50 as the negative base-10 log of the concentration measured in mol/L.

Req: Please state recorded pEC50 (tested on HCMV Strain AD169 in MRC-5 cells) of O=C(NCc1ccc(Cl)cc1)c1cc(O[C@H]2CCN3C(=O)OC[C@@H]3C2)c(CN2CCOCC2)cn1
Resp: 6.35

Req: Enter reported pEC50 observed with HCMV Strain AD169 in MRC-5 cells for CC(=O)N1CC[C@@H](Oc2cc(C(=O)NCc3ccc(Cl)cc3)ncc2-c2cnc(C)o2)C[C@H]1C
Resp: 6.85

Req: Could you share what pEC50 was measured for O=C(NCc1ccc(Br)cc1)c1cc(O[C@H]2CCN3C(=O)OC[C@@H]3C2)c(-c2cnn(C(F)F)c2)cn1 , tested on HCMV Strain AD169 in MRC-5 cells?
Resp: 6.26

Req: Request - read-out pEC50 | tested on HCMV Strain AD169 in MRC-5 cells | compound Cc1cnc(C(=O)NCc2ccc(Cl)cc2)cc1O[C@H]1CCN2C(=O)OC[C@@H]2C1
Resp: 6.22

Req: Query the reported pEC50 for HCMV Strain AD169 in MRC-5 cells; item: CC(=O)N1CCC(Oc2cc(C(=O)NCc3ccc(Cl)cc3)ncc2-c2cnsc2)CC1
Resp: 5.94

Req: // fetch HCMV Strain AD169 in MRC-5 cells pEC50 for CC(=O)N1CCC(Oc2cc(C(=O)NCc3ccc(Cl)cc3)ncc2/C=C/CC(C)O)CC1 (centres unmarked)
Resp: 6.07

Req: Lab note: need pEC50 with HCMV Strain AD169 in MRC-5 cells for entry Cc1cnc(C(=O)NCc2ccc(Cl)cc2)cc1OC1CCC(=O)N(C)CC1 (centres unmarked) , please look it up.
Resp: 5.40

Req: Form field - read-out: pEC50; system: HCMV Strain AD169 in MRC-5 cells; submitted item: CC(C)n1ccc(-c2cnc(C(=O)NCc3ccc(Cl)cc3)cc2O[C@H]2CCN3C(=O)OC[C@@H]3C2)n1
Resp: 6.75

Req: Reported pEC50 for HCMV Strain AD169 in MRC-5 cells, given Cn1cc(-c2cnc(C(=O)NCc3ccc(C#N)cc3)cc2O[C@H]2CCN3C(=O)OC[C@@H]3C2)cn1 (racemic) ?
Resp: 6.74

Req: Param readout = pEC50; param system = HCMV Strain AD169 in MRC-5 cells; param query = CC(=O)N1CCC(Oc2cc(C(=O)NCc3ccc(Cl)cc3)ncc2-c2cnco2)CC1 ; response: value
Resp: 6.11

Req: Lab request: please report pEC50 under test system HCMV Strain AD169 in MRC-5 cells for O=C(NCc1cc(F)c(Cl)c(F)c1)c1cc(O[C@H]2CCN3C(=O)OC[C@@H]3C2)c(-c2cnn(C(F)F)c2)cn1
Resp: 6.61

Req: Quick check: pEC50 on HCMV Strain AD169 in MRC-5 cells, item O=C(NCc1ccc(I)cc1)c1cc(O[C@H]2CCN3C(=O)OC[C@@H]3C2)c(-c2cnn(C(F)F)c2)cn1 ?
Resp: 5.82

Req: For the record Cc1ncc(-c2cnc(C(=O)NCc3ccc(Cl)cc3)cc2O[C@H]2CCN3C(=O)OC[C@@H]3C2)o1 , what value of pEC50 is listed for HCMV Strain AD169 in MRC-5 cells?
Resp: 7.11

Req: # value lookup — system HCMV Strain AD169 in MRC-5 cells, readout pEC50, item CC(=O)N1CCC(Oc2cc(C(=O)NCc3ccc(Cl)cc3)ncc2C#Cc2ccc(C)cn2)CC1
Resp: 5.82

Req: Tell me reported pEC50 for O=C(NCc1ccc(Cl)cc1)c1cc(O[C@H]2CCN3C(=O)OC[C@@H]3C2)c(CN2CCCC(O)C2)cn1 (mixture of isomers) , tested with HCMV Strain AD169 in MRC-5 cells.
Resp: 6.07

Req: Find the measured pEC50: item COc1cc(-c2cnc(C(=O)NCc3ccc(Cl)cc3)cc2OC2CCN(C(C)=O)CC2)sn1 , target or system HCMV Strain AD169 in MRC-5 cells.
Resp: 6.34

Req: Test system HCMV Strain AD169 in MRC-5 cells; read-out pEC50; what value for COC/C=C/c1cnc(C(=O)NCc2ccc(Cl)cc2)cc1OC1CCN(C(C)=O)CC1 ?
Resp: 5.84

Req: Lab request: please report pEC50 under test system HCMV Strain AD169 in MRC-5 cells for O=C(NCc1ccc(Cl)cc1)c1cc(O[C@H]2CCN3C(=O)OC[C@@H]3C2)c(O)cn1
Resp: 5.94

Req: Provide the documented pEC50 with HCMV Strain AD169 in MRC-5 cells as the system for Cc1cc(-c2cnc(C(=O)NCc3ccc(Cl)cc3)cc2O[C@H]2CCN3C(=O)OC[C@@H]3C2)sn1
Resp: 6.99

Req: Which pEC50 is reported with HCMV Strain AD169 in MRC-5 cells for this entry: N#Cc1cnc(C(=O)NCc2ccc(Cl)cc2)cc1O[C@H]1CCN2C(=O)CC[C@@H]2C1 (racemic) ?
Resp: 5.98

Req: Could you share what pEC50 was measured for Cc1ncc(-c2cc(O[C@H]3CCN4C(=O)OC[C@@H]4C3)cc(C(=O)NCc3ccc(Cl)cc3)n2)s1 , tested on HCMV Strain AD169 in MRC-5 cells?
Resp: 5.08

Req: Given the entry C[C@@H]1CN(C)CCN1c1cc(C(=O)NCc2ccc(C#N)cc2)ncc1C#N , what pEC50 was observed with HCMV Strain AD169 in MRC-5 cells?
Resp: 6.38

Req: Under HCMV Strain AD169 in MRC-5 cells: pEC50 value of CC(C)(O)C12CC(C1)N(c1cnc(C(=O)NCc3ccc(Cl)cc3)cc1O[C@H]1CCN3C(=O)OC[C@@H]3C1)C2 ?
Resp: 5.88

Req: Short answer please: pEC50, HCMV Strain AD169 in MRC-5 cells, entry C[C@H](NC(=O)c1cc(O[C@H]2CCN3C(=O)OC[C@@H]3C2)c(-c2cnn(C(F)F)c2)cn1)c1ccc(Cl)cc1
Resp: 6.51

Req: Record lookup: for HCMV Strain AD169 in MRC-5 cells, what pEC50 belongs to C[C@@H]1CN(C)CCN1c1cc(C(=O)NCc2ccc(Cl)cc2)ncc1C#N ?
Resp: 5.91

Req: Form field: pEC50 recorded for Cn1cc(-c2cnc(C(=O)NCc3ccc(Cl)cc3)cc2O[C@H]2CCN3C(=O)NC[C@H]3C2)cn1 (racemic) with HCMV Strain AD169 in MRC-5 cells (enter value)
Resp: 5.96

Req: // lookup pEC50 | system=HCMV Strain AD169 in MRC-5 cells | key= COCCn1ccc(-c2cnc(C(=O)NCc3ccc(Cl)cc3)cc2O[C@H]2CCN3C(=O)OC[C@@H]3C2)n1
Resp: 6.49

Req: Could you share what pEC50 was measured for O=C(NCc1ccc(Cl)cc1)c1cc(O[C@H]2CCN3C(=O)OC[C@@H]3C2)c(-c2cnc(CO)o2)cn1 [Compound 148b] , tested on HCMV Strain AD169 in MRC-5 cells?
Resp: 6.99

Req: Please provide the recorded pEC50 for CC(=O)N1CCC(Oc2cc(C(=O)NCc3ccc(Cl)cc3)ncc2-c2cnn(C)c2)CC1 , tested on HCMV Strain AD169 in MRC-5 cells.
Resp: 6.47
